measurement.protocol: Antioxidant activity assessed as reduction in generation of superoxide radicals at 200 ug/mL measured as formazone formation by spectrophotometry relative to control
Format: functional
Design: scale not given: the % may be the effect or the level left
I'd appreciate it if you could supply Activity values for the items below.

List the reported Activity of each compound below.
1. CC(=O)OC[C@H]1O[C@@H](NC(=S)NNc2ccc(F)cc2F)[C@H](OC(C)=O)[C@@H](OC(C)=O)[C@@H]1OC(C)=O
2. CC(=O)OC[C@H]1O[C@@H](NC(=S)NNc2ccc(F)cc2)[C@H](OC(C)=O)[C@@H](OC(C)=O)[C@@H]1OC(C)=O
3. CC(=O)OC[C@H]1O[C@@H](NC(=S)N/N=C/c2ccc([N+](=O)[O-])s2)[C@H](OC(C)=O)[C@@H](OC(C)=O)[C@@H]1OC(C)=O
4. CC(=O)OC[C@H]1O[C@@H](NC(=S)N/N=C/c2cccnc2)[C@H](OC(C)=O)[C@@H](OC(C)=O)[C@@H]1OC(C)=O

output:
["27%", "29%", "34%", "28%"]
